assay: Oral pharmacokinetics in Sprague Dawley rats (plasma, brain, CSF); type: in vivo; details: rat, per os, 10 mg/kg, brain
MEASURE NAME: Brain Cmax

COMPOUND: CC(C)(C)OC(=O)N1CCCC12CCCNC2=O (single isomer, unassigned) [EV-2]
VALUE: 1213 ng/mL
--
COMPOUND: CC(C)C(=O)N1CCC2(CCCN2C(=O)C(C)C)C1=O (single isomer, unassigned) [GU-1]
VALUE: 0 ng/mL
--
COMPOUND: O=C1NCCCC12CCCN2 (stereo not drawn) [EU-2, 1,7-diazaspiro[4.5]decan-6-one]
VALUE: 593.1 ng/mL
--
COMPOUND: O=C1NCCCCC12CCCNC2 (single isomer, unassigned) [CF, 2,8-diazaspiro[5.6]dodecan-7-one]
VALUE: 48.22 ng/mL
--
COMPOUND: CC(C)CN1CCCC12CC=CCNC2=O (single isomer, unassigned) [GI-2]
VALUE: 97.39 ng/mL
--
COMPOUND: O=C1NCCCC[C@]12CCCN2 [AU-1, (S)-1,7-diazaspiro[4.6]undecan-6-one]
VALUE: 514.7 ng/mL
--
COMPOUND: CN1CCCC12CC=CCNC2=O (single isomer, unassigned) [GC-1]
VALUE: 2578.7 ng/mL
--
COMPOUND: NC(=O)CN1CCCC12CC=CCNC2=O (single isomer, unassigned) [GQ-2]
VALUE: 492.96 ng/mL
--
COMPOUND: O=C1NCCCC12CCCCN2 (single isomer, unassigned) [AY, 1,8-diazaspiro[5.5]undecan-7-one]
VALUE: 799.5 ng/mL
--
COMPOUND: O=C1N(Cc2ccc(F)cc2)CC=CCC12CCCN2 (single isomer, unassigned) [GK-1]
VALUE: 3368.95 ng/mL
--
COMPOUND: CC(=O)N1CCCC12CC=CCNC2=O (single isomer, unassigned) [GG-2]
VALUE: 1689.69 ng/mL
--
COMPOUND: CC(C)C(=O)N1CCCC12CC=CCNC2=O (single isomer, unassigned) [GH-2]
VALUE: 1424.03 ng/mL
--
COMPOUND: O=C1NCC=CCC12CC(F)(F)CN2 (single isomer, unassigned) [GL-2]
VALUE: 3556.03 ng/mL
--
COMPOUND: O=C1NCCCCC12CCCCN2 (single isomer, unassigned) [AZ, 1,8-diazaspiro[5.6]dodecan-7-one]
VALUE: 8074.7 ng/mL
--
COMPOUND: CN1CC=CCC2(CCCN2Cc2ccccc2)C1=O (single isomer, unassigned) [GT-1]
VALUE: 0 ng/mL
--
COMPOUND: O=C1NCC=CC[C@]12CCCN2 [GA, (R)-1,7-diazaspiro[4.6]undec-9-en-6-one]
VALUE: 3963.2 ng/mL
--
COMPOUND: CC(C)(C)OC(=O)N1CCCC12CCCNC2=O (single isomer, unassigned) [EV-1]
VALUE: 1457.4 ng/mL
--
COMPOUND: O=C1NCCCC12CCCCN2 (single isomer, unassigned) [AX, 1,8-diazaspiro[5.5]undecan-7-one]
VALUE: 1547.36 ng/mL

###

assay: Plasma stability (Human); format: in vitro ADME; conditions: after 60 minutes
MEASURE NAME: Plasma (Human): percent of compound remaining (%)

COMPOUND: NC(=O)CN1CCCC12CC=CCNC2=O (single isomer, unassigned) [GQ-2]
VALUE: 96
//
COMPOUND: O=C1NCCCCC12CCCCN2 (single isomer, unassigned) [AZ, 1,8-diazaspiro[5.6]dodecan-7-one]
VALUE: 101
//
COMPOUND: O=C1NCCCC12CCCCN2 (single isomer, unassigned) [AX, 1,8-diazaspiro[5.5]undecan-7-one]
VALUE: 105
//
COMPOUND: CC(C)(C)OC(=O)N1CCCC12CCCNC2=O (single isomer, unassigned) [EV-2]
VALUE: 100

###

biological target: NMDAR2A (Homo sapiens); construct: expressed in transfected cells; host or cells: HEK cells (membrane extract); test: NMDAR agonist assay, [3H]MK-801 binding, NMDAR2A expressing HEK cell membranes; type: biochemical; settings: 50 μM glutamate; read-out: NMDAR2A B: log EC50 (converted)
Sequence (Q12879 23-1464, species assumed, other chains not shown): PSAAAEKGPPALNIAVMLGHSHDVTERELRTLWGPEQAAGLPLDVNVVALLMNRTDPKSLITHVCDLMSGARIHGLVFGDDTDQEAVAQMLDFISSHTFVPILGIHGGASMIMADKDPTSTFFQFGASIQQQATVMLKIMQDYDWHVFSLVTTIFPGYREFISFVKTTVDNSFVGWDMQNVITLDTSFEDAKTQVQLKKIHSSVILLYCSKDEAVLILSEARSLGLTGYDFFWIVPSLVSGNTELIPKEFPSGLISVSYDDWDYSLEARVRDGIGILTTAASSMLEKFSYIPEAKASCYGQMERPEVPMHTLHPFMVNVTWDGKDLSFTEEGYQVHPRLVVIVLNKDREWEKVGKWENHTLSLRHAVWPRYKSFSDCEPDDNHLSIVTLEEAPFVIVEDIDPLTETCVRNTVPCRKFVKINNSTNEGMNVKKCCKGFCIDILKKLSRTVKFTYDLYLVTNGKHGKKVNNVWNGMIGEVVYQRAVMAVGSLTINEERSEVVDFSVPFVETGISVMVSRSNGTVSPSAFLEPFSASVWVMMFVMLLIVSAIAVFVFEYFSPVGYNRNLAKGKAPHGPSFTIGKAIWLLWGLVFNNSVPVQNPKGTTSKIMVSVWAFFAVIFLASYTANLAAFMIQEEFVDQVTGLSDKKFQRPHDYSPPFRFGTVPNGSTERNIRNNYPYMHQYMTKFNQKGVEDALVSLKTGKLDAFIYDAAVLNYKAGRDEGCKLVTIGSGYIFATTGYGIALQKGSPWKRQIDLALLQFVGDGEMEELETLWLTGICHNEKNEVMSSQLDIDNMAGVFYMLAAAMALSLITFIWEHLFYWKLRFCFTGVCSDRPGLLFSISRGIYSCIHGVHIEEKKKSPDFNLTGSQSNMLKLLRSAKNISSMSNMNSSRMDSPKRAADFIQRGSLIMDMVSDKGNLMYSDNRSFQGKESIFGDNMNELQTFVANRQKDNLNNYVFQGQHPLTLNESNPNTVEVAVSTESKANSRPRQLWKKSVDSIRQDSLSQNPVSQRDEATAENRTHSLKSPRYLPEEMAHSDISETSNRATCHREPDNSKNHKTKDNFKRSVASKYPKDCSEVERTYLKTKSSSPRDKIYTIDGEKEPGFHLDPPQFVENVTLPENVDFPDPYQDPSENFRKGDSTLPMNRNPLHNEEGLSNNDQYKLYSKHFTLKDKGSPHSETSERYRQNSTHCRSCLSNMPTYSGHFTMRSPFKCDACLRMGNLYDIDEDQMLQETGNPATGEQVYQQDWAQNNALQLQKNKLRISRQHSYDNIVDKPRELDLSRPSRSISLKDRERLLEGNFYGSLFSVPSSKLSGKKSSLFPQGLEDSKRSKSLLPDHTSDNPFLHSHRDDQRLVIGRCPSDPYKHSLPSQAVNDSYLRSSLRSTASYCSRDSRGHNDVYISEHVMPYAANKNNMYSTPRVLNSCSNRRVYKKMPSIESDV
Known EC50 of a selection of compounds
MEASURE NAME: EC50

COMPOUND: NC(=O)CN1CCCC12CC=CCNC2=O (single isomer, unassigned) [GQ-2]
VALUE: < 1 nM
--
COMPOUND: NC(=O)CN1CCCC12CC=CCNC2=O (single isomer, unassigned) [GQ-1]
VALUE: < 1 nM
--
COMPOUND: CN1CCCC12CC=CCNC2=O (single isomer, unassigned) [GC-1]
VALUE: < 1 nM

###

Examples of compounds with documented Plasma (Human): percent of compound remaining follow.
assay: Plasma stability (Human); format: in vitro ADME; details: after 60 minutes
MEASURE NAME: Plasma (Human): percent of compound remaining (%)

COMPOUND: O=C1NCC=CCC12CCCN2Cc1ccccc1 (single isomer, unassigned) [GP-2]
VALUE: 96
//
COMPOUND: O=C1NCC=CCC12CCCN2Cc1ccc(F)cc1 (single isomer, unassigned) [GJ-2]
VALUE: 95
//
COMPOUND: O=C1NCC=CCC12CCCN2Cc1ccc(F)cc1 (single isomer, unassigned) [GJ-1]
VALUE: 105
//
COMPOUND: O=C1NCCCC12CCCN2 (centres unmarked) [EU-2, 1,7-diazaspiro[4.5]decan-6-one]
VALUE: 74
//
COMPOUND: O=C1N(Cc2ccccc2)CC=CCC12CCCN2 (single isomer, unassigned) [GS-1]
VALUE: 97
//
COMPOUND: NC(=O)CN1CCCC12CC=CCNC2=O (single isomer, unassigned) [GQ-1]
VALUE: 98
//
COMPOUND: O=C1NCCCC12CCCCN2 (single isomer, unassigned) [AY, 1,8-diazaspiro[5.5]undecan-7-one]
VALUE: 104
//
COMPOUND: O=C1N(Cc2ccccc2)CC=CCC12CCCN2 (single isomer, unassigned) [GS-2]
VALUE: 98
//
COMPOUND: O=C1NCCCC[C@]12CCCN2 [AU-1, (S)-1,7-diazaspiro[4.6]undecan-6-one]
VALUE: 100
//
COMPOUND: O=C1NCC=CCC12CC(F)(F)CN2 (single isomer, unassigned)
VALUE: 91
//
COMPOUND: CN1CCCC12CC=CCNC2=O (single isomer, unassigned) [GC-1]
VALUE: 97
//
COMPOUND: CC(C)(C)OC(=O)N1CCCC12CCCNC2=O (single isomer, unassigned) [EV-1]
VALUE: 98
//
COMPOUND: CC(C)CN1CCCC12CC=CCNC2=O (single isomer, unassigned) [GI-2]
VALUE: 99
//
COMPOUND: O=C1N(Cc2ccc(F)cc2)CC=CCC12CCCN2 (single isomer, unassigned)
VALUE: 92
//
COMPOUND: CC(C)CN1CCCC12CC=CCNC2=O (single isomer, unassigned) [GI-1]
VALUE: 96
//
COMPOUND: CC(C)C(=O)N1CCC2(CCCN2C(=O)C(C)C)C1=O (single isomer, unassigned)
VALUE: 82
//
COMPOUND: O=C1NCC=CCC12CCCN2Cc1ccccc1 (single isomer, unassigned) [GP-1]
VALUE: 98

###

Plasma (Human): percent of compound remaining overview
assay: Plasma stability (Human); format: in vitro ADME; settings: after 60 minutes
MEASURE NAME: Plasma (Human): percent of compound remaining (%)

COMPOUND: CC(=O)N1CCCC12CC=CCNC2=O (single isomer, unassigned) [GG-2]
VALUE: 99
--
COMPOUND: CN1CCCC12CC=CCNC2=O (single isomer, unassigned) [GC-2]
VALUE: 98
--
COMPOUND: CN1CC=CCC2(CCCN2Cc2ccccc2)C1=O (single isomer, unassigned) [GT-1]
VALUE: 101
--
COMPOUND: O=C1NCC=CC[C@]12CCCN2 [GA, (R)-1,7-diazaspiro[4.6]undec-9-en-6-one]
VALUE: 95
--
COMPOUND: O=C1NCCCCC12CCCNC2 (single isomer, unassigned) [CF, 2,8-diazaspiro[5.6]dodecan-7-one]
VALUE: 107

###

// values below are reported Plasma (Rat): percent of compound remaining
experiment: Plasma stability (Rat); type: in vitro ADME; details: after 60 minutes
MEASURE NAME: Plasma (Rat): percent of compound remaining (%)

COMPOUND: O=C1NCC=CCC12CCCN2Cc1ccccc1 (single isomer, unassigned) [GP-1]
VALUE: 96

COMPOUND: CN1CCCC12CC=CCNC2=O (single isomer, unassigned) [GC-2]
VALUE: 103

COMPOUND: O=C1NCCCCC12CCCNC2 (single isomer, unassigned) [CF, 2,8-diazaspiro[5.6]dodecan-7-one]
VALUE: 91

COMPOUND: CN1CC=CCC2(CCCN2Cc2ccccc2)C1=O (single isomer, unassigned) [GT-1]
VALUE: 96

COMPOUND: CC(C)(C)OC(=O)N1CCCC12CCCNC2=O (single isomer, unassigned) [EV-1]
VALUE: 94

COMPOUND: NC(=O)CN1CCCC12CC=CCNC2=O (single isomer, unassigned) [GQ-2]
VALUE: 97

COMPOUND: O=C1NCCCC12CCCCN2 (single isomer, unassigned) [AY, 1,8-diazaspiro[5.5]undecan-7-one]
VALUE: 107

COMPOUND: O=C1NCCCCC12CCCCN2 (single isomer, unassigned) [AZ, 1,8-diazaspiro[5.6]dodecan-7-one]
VALUE: 101

Reference source for all entries: patent US20210047324A1
